Entries and their log10(MIC)
# Tested on: Bacillus subtilis
# experiment-notes: Antibacterial activity against Bacillus subtilis NCIM-2063 incubated for 24 hrs by two fold serial dilution method
# Type: functional
# setup-conditions: NCIM-2063, 24 h
# log10 transformed; quantity=MIC; unit=µg/mL

Some compounds with recorded log10(MIC):
• Fc1cc(/N=C/c2ccccc2)ccc1N1CCOCC1 = 1.48
• Fc1cc(/N=C/c2c(Cl)cccc2Cl)ccc1N1CCOCC1 = 1.30
• Cc1cccc2cc(/C=N/c3ccc(N4CCOCC4)c(F)c3)c(Cl)nc12 = 1.00
• Fc1cc(/N=C/c2ccoc2)ccc1N1CCOCC1 = 1.60
• Oc1ccc(/C=N/c2ccc(N3CCOCC3)c(F)c2)cc1O = 1.40

**Q:** # lookup: log10(MIC) of Fc1cc(/N=C/c2cc3ccccc3nc2Cl)ccc1N1CCOCC1
**A:** 0.70

**Q:** Reported log10(MIC), compound COc1ccc(/C=N/c2ccc(N3CCOCC3)c(F)c2)cc1OC : ____
**A:** 1.30

**Q:** log10(MIC) lookup needed for Fc1ccc(/C=N/c2ccc(N3CCOCC3)c(F)c2)cc1 , thanks.
**A:** 1.30

**Q:** Entry Fc1cc(/N=C/c2c[nH]c3ccccc23)ccc1N1CCOCC1 : reported log10(MIC) = ?
**A:** 1.54

**Q:** Consider the compound CC(=O)NC[C@H]1CN(c2ccc(N3CCOCC3)c(F)c2)C(=O)O1 [LINEZOLID] and give its measured log10(MIC).
**A:** 0.48
